Numbers sourced from PubChem BioAssay (EPA / NIEHS).

# Read-out: Monocyte Chemoattractant Protein-1 (MCP1), CCL2 (gene 6347)
# Experiment summary: BSK_SAg_MCP1: BioMAP Diversity Plus: SAg Assay for Monocyte Chemoattractant Protein-1 (MCP1) Biomarker Activity (AID 2283090)
# Test context: primary human HUVEC with PBMC; actives raise or lower the signal
Calls of active or inactive are those of the source. Rule for the calls: active = hit-call score of the fitted dose curve at least 0.9, where 1 is the maximum; inactive = score below 0.9.
Choose one outcome from this list and give only that: t = active, f = inactive

See these solved cases before continuing.
{"Smiles data": "Cc1cc(N=Nc2ccccc2C)ccc1N", "Cat": "t"}
{"Smiles data": "N#CC(Br)(Br)C(N)=O", "Cat": "f"}
{"Smiles data": "C1=Cc2cccc3cccc1c23", "Cat": "f"}
{"Smiles data": "Nc1ccc(Cc2ccc(N)cc2)cc1", "Cat": "f"}

Q: What did this assay record as the result for `CS(=O)(=O)NC(=O)c1cc(Oc2ccc(C(F)(F)F)cc2Cl)ccc1[N+](=O)[O-]` ?
Result: f

Q: What did this assay record as the result for `O=C(N[C@H](c1ccccc1)[C@@H]1CN2CCC1CC2)c1c(Cl)ccc(C(F)(F)F)c1Cl` ?
Result: f

Q: What did this assay record as the result for `c1ccc2c(c1)-c1cccc3cccc-2c13` ?
Result: f

###

# Read-out: Insulin Like Growth Factor 1 (IGF1), IGF1 (gene 3479)
# Experiment summary: LTEA_HepaRG_IGF1: Life Technologies and Expression Analysis (LTEA) Assay for Insulin Like Growth Factor 1 (IGF1) using HepaRG (AID 2283506)
# Test context: mRNA level, 48 h; actives raise or lower the signal
Calls of active or inactive are those of the source. How the source made its calls: active means hit-call score of the fitted dose curve at least 0.9, where 1 is the maximum; inactive means score below 0.9.
Choose one outcome from this list and give only that: active, inactive

See these solved cases before continuing.
{"Compound": "Nc1ccc(N=Nc2ccccc2)cc1", "Cat": "active"}
{"Compound": "O=[N+]([O-])C(Br)(CO)CO", "Cat": "inactive"}
{"Compound": "CCCCCOC(=O)c1ccccc1C(=O)OCCCCC", "Cat": "inactive"}

Shifting focus to the compound that follows.
Q: What did this assay record as the result for `[Cl-].[Cl-].[Hg+2]` ?
Result: inactive

###

# Experiment summary: ArunA_Migration_hNP: ArunA Biomedical's Oris Neuroprogenitor (hNP) Cell Migration Assay (AID 2283754)
Results filed as inconclusive are left out. Calls of active or inactive are those of the source. The calls were made as follows: active = hit-call score of the fitted dose curve at least 0.9, where 1 is the maximum; inconclusive = response in the unintended direction; inactive = score below 0.9.
Choose one outcome from this list and give only that: 1.0 = active, 0.0 = inactive

See these solved cases before continuing.
{"Smiles data": "O=P(OCCCl)(OCCCl)OCCCl", "Cat": 0.0}
{"Smiles data": "Oc1ccc2ccc3cccc4ccc1c2c34", "Cat": 1.0}

Q: What did this assay record as the result for `CO[C@@H]1[C@H](OC(=O)NC(=O)CCl)CC[C@]2(CO2)[C@H]1[C@@]1(C)O[C@@H]1CC=C(C)C` ?
Result: 0.0

Q: What did this assay record as the result for `Clc1ccc(Cl)c(Cl)c1` ?
Result: 0.0

###

# Experiment summary: TAMU_PeakParms_SingleDonor1434_Chronotropy: Texas A&M University (TAMU) 1.5-hr Human Induced Pluripotent Stem Cell (iPSC)-derived Cardiomyocytes Calcium (Ca+2) Flux Assay for Cardiotoxicity: Chronotropy (changes in peak frequency) (AID 2284217)
# Test context: actives raise or lower the signal
Active and inactive are the calls of the source. Rule for the calls: active = hit-call score of the fitted dose curve at least 0.9, where 1 is the maximum; inactive = score below 0.9.
Choose one outcome from this list and give only that: Yes = active, No = inactive

See these solved cases before continuing.
{"Compound": "CC(C)(C)C(O)(CCc1ccc(Cl)cc1)Cn1cncn1 (configuration not stated)", "Cat": "No"}
{"Compound": "O=P(OCCCl)(OCCCl)OCCCl", "Cat": "No"}
{"Compound": "Clc1ccc(C(c2ccc(Cl)cc2)C(Cl)(Cl)Cl)cc1", "Cat": "No"}
{"Compound": "ClC1=C(Cl)[C@]2(Cl)[C@H]3[C@H]([C@@H]4C=C[C@H]3C4)[C@@]1(Cl)C2(Cl)Cl", "Cat": "No"}
{"Compound": "CCCCCCCCn1sccc1=O", "Cat": "No"}
{"Compound": "ClC1=C(Cl)C2(Cl)C3C(Cl)C=CC3C1(Cl)C2(Cl)Cl (configuration not stated)", "Cat": "No"}

Shifting focus to the compound that follows.
Q: What did this assay record as the result for `C1=Cc2cccc3cccc1c23` ?
Result: Yes

###

# Read-out: Cytochrome P450 4A22 (Homo sapiens) (UniProt Q5TCH4)
# Experiment summary: LTEA_HepaRG_CYP4A22: Life Technologies and Expression Analysis (LTEA) Assay for Cytochrome P450 4A22 (CYP4A22) using HepaRG (AID 2283495)
# Test context: mRNA level, 48 h; actives raise or lower the signal
The source made the active and inactive calls. How the source made its calls: active means hit-call score of the fitted dose curve at least 0.9, where 1 is the maximum; inactive means score below 0.9.
Choose one outcome from this list and give only that: Y = active, N = inactive

{"Compound": "Cc1ccc(N)cc1", "Cat": "N"}
{"Compound": "CCOc1cccc(C2(N3CCN(c4ccccc4)CC3)CCC(C)CC2)c1 (stereo not drawn)", "Cat": "N"}

Shifting focus to the compound that follows.
Q: What did this assay record as the result for CC(C)(C)C(O)(CCc1ccc(Cl)cc1)Cn1cncn1 (stereo not drawn) ?
Result: Y

###

# Read-out: Paternally Expressed 10 (PEG10), PEG10 (gene 23089)
# Experiment summary: LTEA_HepaRG_PEG10: Life Technologies and Expression Analysis (LTEA) Assay for Paternally Expressed 10 (PEG10) using HepaRG (AID 2283520)
# Test context: mRNA level, 48 h; actives raise or lower the signal
Active and inactive are the calls of the source. How the source made its calls: active means hit-call score of the fitted dose curve at least 0.9, where 1 is the maximum; inactive means score below 0.9.
Choose one outcome from this list and give only that: active, inactive

{"Compound": "[Cl-].[Cl-].[Hg+2]", "Cat": "inactive"}
{"Compound": "Brc1ccc(Oc2ccccc2)cc1", "Cat": "inactive"}
{"Compound": "c1ccc(C2CO2)cc1 (stereo not drawn)", "Cat": "inactive"}
{"Compound": "CCCCCCCCCCCCCN1CC(C)OC(C)C1 (stereo not drawn)", "Cat": "inactive"}
{"Compound": "CCCCCCCCOC(=O)c1ccc(C(=O)OCCCCCCCC)c(C(=O)OCCCCCCCC)c1", "Cat": "inactive"}
{"Compound": "Nc1ccc(Cc2ccc(N)cc2)cc1", "Cat": "inactive"}
{"Compound": "CCOC(=O)[C@]1(c2ccccc2)Oc2ccccc2[C@@H]1N", "Cat": "active"}
{"Compound": "CN(C)[C@@H]1C(=O)C(C(N)=O)=C(O)[C@@]2(O)C(=O)C3=C(O)c4c(O)cccc4[C@@](C)(O)[C@H]3C[C@@H]12", "Cat": "inactive"}

Q: What did this assay record as the result for `[As]#[In]` ?
Result: inactive

Q: What did this assay record as the result for `CCN(CC)N=O` ?
Result: inactive

Q: What did this assay record as the result for CC(O)CCO (stereo not drawn) ?
Result: inactive

###

# Experiment summary: ATG_DR4_LXR_CIS: Attagene CIS-FACTORIAL HepG2 Assay for human Liver X Receptor (LXR), DR4 submotif (AID 2282929)
# Test context: HepG2 Attagene DR4 cis-reporter, mRNA transcription; actives raise or lower the signal
# Procedure: ATG_CIS is a cell-based, multiplexed-readout assay that uses HepG2, a human liver cell line, with measurements taken at 24 hours after chemical dosing in a 24-well plate.ATG_DR4_LXR_CIS is one of 52 assay component(s) measured or calculated from the ATG_CIS assay. […] This assay endpoint, ATG_DR4_LXR_CIS, was analyzed with bidirectional fitting relative to DMSO as the negative control and baseline of activity. […]
Calls of active or inactive are those of the source. Rule for the calls: active = hit-call score of the fitted dose curve at least 0.9, where 1 is the maximum; inactive = score below 0.9.
Quantity name: AC50

Past entries and their recorded results:
{"Compound": "Clc1ccc(C(c2ccc(Cl)cc2)C(Cl)(Cl)Cl)cc1", "Result": "27.6 µM (active)"}
{"Compound": "C=CCc1ccc2c(c1)OCO2", "Result": "inactive"}
{"Compound": "OCCCl", "Result": "inactive"}
{"Compound": "CN(C)[C@@H]1C(=O)C(C(N)=O)=C(O)[C@@]2(O)C(=O)C3=C(O)c4c(O)cccc4[C@@](C)(O)[C@H]3C[C@@H]12", "Result": "inactive"}
{"Compound": "COC(=O)Nc1nc2ccccc2[nH]1", "Result": "inactive"}
{"Compound": "Oc1ccccc1Cl", "Result": "inactive"}

Q: Look up AC50 for this compound: CCCCC(CC)COC(=O)c1ccc(C(=O)OCC(CC)CCCC)c(C(=O)OCC(CC)CCCC)c1 (centres undefined)
Result: inactive

Q: Look up AC50 for this compound: `Clc1ccc(C(c2ccc(Cl)cc2)C(Cl)Cl)cc1`
Result: 17.1 µM (active)

###

# Assay target: Peroxisome proliferator-activated receptor gamma (Homo sapiens) (UniProt P37231)
# Sequence (P37231 whole entry, looked up): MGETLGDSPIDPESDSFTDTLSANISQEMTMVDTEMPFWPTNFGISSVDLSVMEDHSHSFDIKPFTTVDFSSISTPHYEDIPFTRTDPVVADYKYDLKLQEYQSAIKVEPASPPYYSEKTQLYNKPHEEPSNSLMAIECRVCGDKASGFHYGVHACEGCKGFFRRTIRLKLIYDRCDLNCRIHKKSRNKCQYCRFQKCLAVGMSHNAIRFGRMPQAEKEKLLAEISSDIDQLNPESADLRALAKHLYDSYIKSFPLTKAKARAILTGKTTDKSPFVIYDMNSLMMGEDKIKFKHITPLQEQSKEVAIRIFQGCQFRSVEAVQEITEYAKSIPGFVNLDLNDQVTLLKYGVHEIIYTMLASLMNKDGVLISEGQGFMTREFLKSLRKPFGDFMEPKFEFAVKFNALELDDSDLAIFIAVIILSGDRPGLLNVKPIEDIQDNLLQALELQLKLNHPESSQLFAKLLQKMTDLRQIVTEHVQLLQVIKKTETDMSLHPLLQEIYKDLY
# Experiment summary: ATG_PPARg_TRANS: Attagene TRANS-FACTORIAL HepG2 Assay for human Peroxisome Proliferator-activated Receptor-gamma (PPARg) (AID 2283007)
Inconclusive results are not listed. Calls of active or inactive are those of the source. The calls were made as follows: active = hit-call score of the fitted dose curve at least 0.9, where 1 is the maximum; inconclusive = response in the unintended direction; inactive = score below 0.9.
Choose one outcome from this list and give only that: label 1 = active, label 0 = inactive

See these solved cases before continuing.
{"Smiles data": "CN(C)c1ccc(C(=O)c2ccc(N(C)C)cc2)cc1", "Cat": "label 1"}
{"Smiles data": "ClCCOCCCl", "Cat": "label 0"}
{"Smiles data": "ClC1=C(Cl)[C@]2(Cl)[C@H]3[C@H]([C@@H]4C=C[C@H]3C4)[C@@]1(Cl)C2(Cl)Cl", "Cat": "label 0"}
{"Smiles data": "Oc1ccccc1Cl", "Cat": "label 0"}
{"Smiles data": "CCOC(=O)[C@]1(c2ccccc2)Oc2ccccc2[C@@H]1N", "Cat": "label 0"}

Q: What did this assay record as the result for `COC(=O)Nc1nc2ccccc2[nH]1` ?
Result: label 0

Q: What did this assay record as the result for `Nc1ccc(Cc2ccc(N)cc2)cc1` ?
Result: label 0
